target: T1, human CD3 on CD3+ Jurkat cells (human, UniProt P07766 23-207); test: flow cytometry, 100 nM IgG on CD3+ Jurkat cells, pH 6.0
T1 construct: whole, on cells; Native CD3 complex on cells; the other CD3 chains are not specified for this assay; also called Human CD3+ Jurkat
T1 sequence (P07766 23-207): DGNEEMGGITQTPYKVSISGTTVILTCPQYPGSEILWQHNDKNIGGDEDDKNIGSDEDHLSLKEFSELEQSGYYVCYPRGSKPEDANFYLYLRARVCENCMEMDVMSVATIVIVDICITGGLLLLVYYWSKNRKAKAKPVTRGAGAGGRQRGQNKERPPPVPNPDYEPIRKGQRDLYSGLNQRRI
REPORTED_METRIC: MFI pH 6.0 (MFI)
Give bare numbers, in MFI.

Known results for binders:
BINDER	MFI pH 6.0 (MFI)
SAD10319_P04_E12 (ADI-48642) (antibody, V domains shown, IgG; also called Ab43) VH: QVQLVQSGAEVKKPGASVKVSCKASGYTFTSYPMHWVRQAPGQRLEWMGWIDAGTGLTTYSQKFQGRVTITRDTSASTAYMELSSLRSEDTAVYYCARDHYHRYFYDMWGQGTLVTVSS VL: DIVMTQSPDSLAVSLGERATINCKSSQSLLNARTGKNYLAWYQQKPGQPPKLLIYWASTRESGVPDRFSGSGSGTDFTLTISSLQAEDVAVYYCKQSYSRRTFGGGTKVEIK	332
SAD10318_P01_D01 (ADI-48576) (antibody, V domains shown, IgG; also called Ab182) VH: QVQLVQSGAEVKKPGASVKVSCKASGFNIKDYYMHWVRQAPGQRLEWMGWIDLENANTIYDAKFQGRVTITRDTSASTAYMELSSLRSEDTAVYYCARDAYHRYFYDHWGQGTLVTVSS VL: DIVMTQSPDSLAVSLGERATINCKSSQSLLNAHTGKNHLAWYQQKPGQPPKLLIYWASTRESGVPDRFSGSGSGTDFTLTISSLQAEDVAVYYCKQSHSHRTFGGGTKVEIK	849
SAD10320_P01_D01 (ADI-48644) (antibody, V domains shown, IgG; also called Ab48) VH: QVQLVQSGAEVKKPGASVKVSCKASGFNIKDYYMHWVRQAPGQRLEWMGWIDLENANTIYDAKFQGRVTITRDTSASTAYMELSSLRSEDTAVYYCARDAYGHGFYDVWGQGTLVTVSS VL: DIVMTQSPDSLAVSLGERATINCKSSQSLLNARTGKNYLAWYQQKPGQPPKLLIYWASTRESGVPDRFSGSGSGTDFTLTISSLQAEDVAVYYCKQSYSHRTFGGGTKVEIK	860
SAD10318_P02_B05 (ADI-48596) (antibody, V domains shown, IgG; also called Ab179) VH: QVQLVQSGAEVKKPGASVKVSCKASGFNIKDYYMHWVRQAPGQRLEWMGWIDLENANTIYDAKFQGRVTITRDTSASTAYMELSSLRSEDTAVYYCARDAYGRHFYDHWGQGTLVTVSS VL: DIVMTQSPDSLAVSLGERATINCKSSQSLLNAHTGKNYLAWYQQKPGQPPKLLIYWASTRESGVPDRFSGSGSGTDFTLTISSLQAEDVAVYYCKQSYSRRTFGGGTKVEIK	500

For the next question, use this binder.
INPUT: Recorded MFI pH 6.0 of SAD10318_P01_B02 (ADI-48582) (antibody, V domains shown, IgG; also called Ab248) VH: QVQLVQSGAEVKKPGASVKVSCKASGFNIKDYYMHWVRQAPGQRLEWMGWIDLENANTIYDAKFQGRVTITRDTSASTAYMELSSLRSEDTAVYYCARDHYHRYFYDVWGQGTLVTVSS VL: DIVMTQSPDSLAVSLGERATINCKSSQSLLNARTGHNHLAWYQQKPGQPPKLLIYWASTRESGVPDRFSGSGSGTDFTLTISSLQAEDVAVYYCKQSHSHRTFGGGTKVEIK , please.
OUTPUT: 326
